- System: HT29 colon
- assay_method_text: NCI tumour cell line growth inhibition, 48 h
Where a SMILES comes first, the peptide text is derived from it. Bridges are numbered along the chain shown (N, C = ends). The star is where a group is joined. Cbz = O=C(OCc1ccccc1)*
Quick reference for TGI among some compounds

Sample records with TGI:
- compound: "N#CC1=C(N)Oc2c(sc3c(Br)cccc23)C1c1ccc([N+](=O)[O-])cc1 (stereo not drawn)"
  TGI: "3.2 µM"
- compound: "CCN(CC)C(=O)CCn1ccc(=O)[nH]c1=O"
  TGI: "> 100 µM"
- compound: "O=C(c1ccc2ccccc2c1)C1(I)S(=O)(=O)OCCOS1(=O)=O"
  TGI: "> 100 µM"
- compound: "CN(Cc1cnc2nc(N)nc(N)c2n1)c1ccc(C(=O)NCCCS(=O)(=O)O)cc1"
  TGI: "> 100 µM"

Input: Read off the recorded TGI for CNC(=O)C1CCCCNC(=O)CCC(NC(=O)OCc2ccccc2)C(=O)N1 (stereo not drawn) (Cbz-Glu-Lys-NHMe; lactam 1-2; configuration not given here)
Output: > 100 µM
